- System: RXF 393 renal
- Test summary: NCI-60 one-dose screen, 48 h (100 = growth as untreated, 0 = no growth, -100 = all killed)
- Condition set: 10 µM unless noted
This is part of a sample that, as a whole, favours compounds with a hit. Of some 83,000 tested, about 20% had one in any assay.
Records here are stratified by growth; strata: low (below 40%), middle (40% to below 80%), high (80% or more)

1. C=C1C(=O)O[C@@H]2[C@@H]3O[C@@](C)(CC/C=C(\C)CCC[C@@H]2C)[C@H](O)C[C@@H]13 :: low
2. Nc1ncnc2c1c(-c1ccc(Oc3ccccc3)cc1)nn2C[C@@H]1SSC[C@@H]1O :: low
3. C[n+]1c(/C=C/c2c(O)ccc3ccccc23)ccc2ccccc21 :: low
4. Cc1ccc2[nH]c(=O)c3c(c2c1)Oc1ncn2nc(-c4ccco4)nc2c1C3c1ccc(Cl)cc1 (stereo not given) :: high
5. CN(C)c1ncnc2c1ccn2C1OC(CO)C(O)C1O (stereo not given) :: middle
6. C=C1CCC2C(C)(CO)C(O)CCC2(C)C1C/C=C1/C(=O)OCC1Oc1ccccc1C (stereo not given) :: high
7. COc1ccc(-c2ccc(C)n2-c2ccc(-c3nc4ccccc4s3)cc2)cc1 :: high
8. CCCCCCCCCCCCCCCCCCNC(=O)[C@H]1CSC(c2cccs2)N1 (stereo not given in full) :: low
9. CCO/C=N/C1=C(C#N)C(c2ccc(Cl)cc2)c2c(c3ccc(C)cc3[nH]c2=O)O1 (stereo not given) :: middle

###

- Test system: K-562 leukemia
- Test summary: NCI-60 one-dose screen, 48 h
- Condition set: 10 µM unless noted
Compounds without any hit were thinned out: in the full panel of roughly 83,000, 20% have a hit. Activity calls are given as the source filed them. How the source made its calls: active means growth percent below 10; inactive means the rest.
Classes used: active, inactive

1) C/C=C/C1=CN2C(=O)c3cc(OC4OC(C)C(NC)C(C)(O)C4O)c(C)cc3N=C[C@@H]2C1 (stereo partly specified) :: active
2) COc1ccc(S(=O)(=O)n2ccc(-c3ccc4c(c3)CCC(C)(C)O4)n2)cc1OC :: inactive
3) COc1ccc(/C=C(\C#N)c2cc(OC)c3c(c2)OCO3)cc1 :: active
4) CC(=O)Nc1ccc(/C=C/C(=O)c2ccccc2)cc1 :: inactive
5) COc1cc(/C(C#N)=C/c2ccc3c(c2OC)OCO3)cc2c1OCO2 :: inactive
6) CC(=O)Nc1ccc(S(=O)(=O)n2ccc(-c3ccc4c(c3)CCC(C)(C)O4)n2)cc1 :: inactive
7) S=C1CC(=S)NC(=S)N1 :: inactive
8) COc1ccc(C2=CC(c3cc(OC)c(OC)c(OC)c3)NC(=O)N2)cc1OC (stereo unspecified) :: inactive
9) C/C=C(\C)C(C(=O)NC1CCCCC1)N(C(=O)C1CCc2cc(F)ccc2O1)c1ccc(Cl)cc1 (stereo unspecified) :: inactive
10) Clc1ccccc1-c1nc2ccccc2[nH]1 :: inactive
11) Cc1cc(C)n(-c2nnc3n2N=C(c2ccc(-c4ccccc4)cc2)CS3)n1 :: active
12) O=c1c2sc3ncccc3c2nnn1-c1ccccc1 :: inactive
13) CCCCCCCCCCCCNC(=O)[C@H]1CSC(c2ccsc2)N1 (stereo partly specified) :: active
14) COc1ccc(CNCCCN2C(=O)c3ccc4c5c(ccc(c35)C2=O)C(=O)N(CCCNCCCCNCCCN)C4=O)c(OC)c1OC :: active
15) CC1CCC(C)N(C)C1 (stereo unspecified) :: inactive
16) CC(C)NCCCNC1=C(Cl)C(=O)c2ccccc2C1=O :: active
17) C=C(C)[C@@H]1CC[C@]2(C(=O)N3CCNCC3)CC[C@]3(C)[C@H](CC[C@@H]4[C@@]5(C)C/C(=C/c6ccncc6)C(=O)C(C)(C)[C@@H]5CC[C@]43C)[C@@H]12 :: inactive
18) COC(=O)c1cc2cc(-c3ccc(OC)cc3)cnc2[nH]1 :: active
19) COc1ccc(-c2nc(SCCC(C)C)nc(Nc3ccc(F)c(Cl)c3)c2C#N)cc1 :: inactive
20) CC(C)(C)NCCC(O)c1cc2c(Cl)cc(Cl)cc2c2cc(C(F)(F)F)ccc12 (stereo unspecified) :: active
21) CCN(CC)c1ccc(CNc2ccnc3ccccc23)cc1 :: active
22) O=C(O)c1cn(C2CC2)c2cc(N3CCN(C(=O)/C=C/c4ccc(Cl)cc4)CC3)c(F)cc2c1=O :: inactive
23) S=c1[nH]nc(-c2cc3ccc2CCc2ccc(cc2)CC3)n1-c1ccccc1 :: inactive
24) Clc1cccc(-c2cc(-c3ccc4c(c3)OCCO4)[nH]n2)c1 :: inactive
25) OCc1ncc(-c2ccccc2)s1 :: inactive
26) COc1ccc2[nH]c(=O)c3c4ccccc4cn3c2c1 :: active
27) CC[N+](CC)=c1cc2oc3cc(N(C)C)ccc3nc-2cc1C :: inactive
28) CCCCCCCCCCCCCCCCCCNC(=O)[C@H]1CSC(c2ccc(OC)cc2O)N1 (stereo partly specified) :: inactive
29) COc1ccc(-c2c(N)n[nH]c2-c2cc3c(c(OC)c2OC)OCO3)cc1 :: inactive
30) O=[N+]([O-])c1ccc(C(c2ccccc2)c2ccccc2)cc1 :: inactive
31) COc1ccc(NC(=O)c2cc(OC)c(OC)c(OC)c2)cc1O :: inactive
32) N#Cc1c(-c2ccccc2)nc(SCC(=O)N2CCN(c3ccccc3)CC2)[nH]c1=O :: inactive
33) COc1ccc(Nc2ncccc2C(=O)NCc2cn(Cc3cccc(Oc4ccccc4)c3)nn2)c(OC)c1 :: inactive
34) COc1ccc(/C=C\c2cc(OC)c(OC)c(OC)c2)cc1OC(=O)c1cccc(Cn2cc(CCOC(=O)c3cccc(Cn4nnc5c4C(=O)c4ccccc4C5=O)c3)nn2)c1 :: active
35) Cc1ccc(-c2cc3nc(C(Cl)Cl)nc(-c4cccnc4)n3n2)cc1 :: active
36) Cc1cc(N/N=C/c2nc(-c3ccc(Br)cc3)oc2C)c2cc(Cl)ccc2n1 :: active
37) CCc1ccc(-c2ccc(=O)n(-c3ccc(S(N)(=O)=O)cc3)n2)cc1 :: inactive
38) NC(=O)CCCN1C/C(=C\c2ccccc2)C(=O)c2ccccc21 :: inactive
39) O=Nc1c(-c2cccc([N+](=O)[O-])c2)nc2ncccn12 :: inactive
40) COc1cc(/C=C/C(=O)c2cccc(-n3cc(-c4cc(OC)c(OC)c(OC)c4)[nH]c3=O)c2)cc(OC)c1OC :: active
41) COc1cc2c(=O)n(C3CCCCCC3)c3c4cc[nH]c4ncc3c2cc1OC :: inactive

###

- Tested on: A498 renal
- Test summary: NCI-60 one-dose screen, 48 h
- Condition set: 10 µM unless noted
The panel holds about 83,000 compounds, 20% with a hit somewhere; the sample as a whole holds those more often. The source made the active and inactive calls. Rule for the calls: active = growth percent below 10; inactive = the rest.
Classes used: yes = active, no = inactive

1) Cc1[nH]c2ccc(F)cc2c1CCNC(=O)C1CCN(C(=O)c2ccccc2)C1 (centres undefined) :: no
2) Clc1ccccc1-c1nc2ccccc2[nH]1 :: no
3) COc1cc(-c2nn(-c3cccc(NC(=O)Nc4ccc(Cl)c(Cl)c4)c3)cc2-c2ccncc2)ccc1Cl :: yes
4) C=C1CCC2C(C)(CO)C(O)CCC2(C)C1C/C=C1/C(=O)OCC1O/C=C/c1ccccc1 (centres undefined) :: no
5) COc1c2occc2c(OC)c2c(=O)c(-c3cc(-c4ccc(F)cc4)c(C#N)c(N)n3)c(C)oc12 :: no
6) N#C/C(=C1C=C/C(=N/O)C(Cl)=C/1)c1ccc(Cl)cc1 :: no
7) CC1=C(C#N)C(=O)NC(C)C1 (centres undefined) :: no
8) O=C(C1=Cc2cc3ccccc3n2Cc2cnnn21)c1ccccc1 :: no
9) O=[N+]([O-])c1ccc(-c2cn(-c3ccccc3)c(-c3ccccc3)n2)cc1 :: no
10) Nc1ncnc2c1c(-c1ccc(Oc3ccccc3)cc1)nn2C[C@@H]1SSC[C@@H]1O :: no
11) c1cc(C2=N[C@@H]3c4ccccc4C[C@@H]3O2)nc(C2=N[C@@H]3c4ccccc4C[C@@H]3O2)c1 :: no
12) O=C1Nc2ccc(Cl)cc2C12Nc1cc(Cl)ccc1S2 (centres undefined) :: no
13) Cn1c2ccc(Br)cc2c2c3c(c4c5ccccc5[nH]c4c21)C(=O)N(O)C3=O :: yes
14) COc1cc(/C=N\NC(=O)CN2CCN(c3cc4c(cc3F)c(=O)c(C(=O)N/N=C/c3cc(OC)c(OC)c(OC)c3)cn4C3CC3)CC2)cc(OC)c1OC :: no
15) ClC(Cl)c1nc(-c2cccnc2)n2nc(-c3ccccc3)cc2n1 :: no
16) CC(C)(C)n1cc(-c2ccnc(NCCNS(=O)(=O)c3ccc(Cl)cc3)c2)c(-c2cccc(O)c2)n1 :: no
17) c1ccc(-c2cn(-c3ccccc3)c(-c3ccccc3)n2)cc1 :: no
18) Cc1ccc(-c2cc3nc(-c4ccccc4)nc(C(Cl)Cl)n3n2)cc1 :: yes
19) CCC(C)/C(=C\C#N)NCCCN/C(=C/C#N)C(C)CC (centres undefined) :: no
20) CCOC(=O)CC(=O)OC :: no
21) COc1ccc(C2=CC(c3cc(OC)c(OC)c(OC)c3)NC(=O)N2)cc1OC (centres undefined) :: no
22) Cn1c(=O)c2[nH]c(C3CC=CCC3)nc2n(C)c1=O (centres undefined) :: no
23) COc1ccc(-c2ccc(-c3ccc(C(=N)N)s3)s2)cc1Cl :: no
24) COc1ccc(C(=O)N2NC(=O)/C(=C/c3ccc(F)cc3)N=C2c2ccccc2)cc1 :: no
